Tested on: RARb homodimer (NR concentration 270 nM)
Method summary: PBM binding z-score (relative to random genomic background probes); higher = stronger binding; sequences stand for … in GC…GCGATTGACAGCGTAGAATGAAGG
Outcome label depends on PBM binding z-score relative to 2: at/above gives 1, below gives -1.

# Construct sequence, Assigned label
records = [
    ("ACTAGCAGGCCGAGTTTGGGTCACTCAAACAAAG", -1),
    ("CCTACTGGGCCAAGGTCATTCATCAGTCAAAGCA", 1),
    ("TAGCCTAGGTCATTGGGCGAGTATAGTACGCATC", 1),
    ("CGTCCAAGGTCAGAGAGGTCAGTGGATGCCGAGT", 1),
    ("CCTTACGGGTCACTCCAGCTTATAGCATCGGAGT", 1),
    ("TCTTATAGGTAAAGGTGAAAGTCGAACGATATGA", -1),
    ("GCGACTGGGGCATCAGCAGGTTACCACAACTTAA", -1),
    ("CTGCCTAGGTCAGGGCCAGTATAGGAGGAACGTT", 1),
    ("CAAACTAGGGCAAGGTCAAAGTCGGTTTGTGCCA", 1),
    ("ACAGACAGGTGATGAAGGTGACTCAGGCTATCAT", -1),
    ("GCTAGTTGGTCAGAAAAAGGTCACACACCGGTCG", 1),
    ("ATCTCTAGGTAAAAGTTCACTGAATCCCGAGGAT", 1),
    ("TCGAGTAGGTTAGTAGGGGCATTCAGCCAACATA", -1),
    ("CCGACTGGGGCATAAGGTTACCATCAGCCAGCCC", -1),
    ("ATCTCTAGGTAAAGATAGTTCAATGAATGCAAAT", -1),
    ("GGAACGAGGGCATTCGAGTGGATAGCATGGCGAT", -1),
    ("CGAACTAGGTCAAGGACCGTGAATCTCCGCACGC", 1),
    ("CCTCGTAGGACAACAGGAGGTCAGAGCTGCCAGA", 1),
    ("CCTCGGAGGACAGAAGGTCTGAGCTGTCCGCTTT", -1),
    ("AGAACGAGGGCACGCAGAGTTGATAGCAGAGTAG", -1),
    ("ACTATTAGTTGACTTACGGCAACCGATACGACGC", -1),
    ("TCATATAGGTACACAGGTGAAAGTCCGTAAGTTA", -1),
    ("GCATATCGGTAATACAAGGTGAAAGTCCGATTGT", -1),
    ("CGTACTGGGCCAAAAAGGTCATTGATGCCGATAA", 1),
    ("TCTCGGAGGACACGAATGGTCAGAGCTCGACATC", -1),
    ("TCTGCTCGGTCAGTTGGTCAGCTAACGAGCTGCC", -1),
]

----------
Test system: PPARg:RXRa 270nM:90nM, anti-RXR (NR concentration 270 nM, RXRa partner concentration 90 nM)
Method summary: PBM binding z-score (relative to random genomic background probes); higher = stronger binding; sequences stand for … in GC…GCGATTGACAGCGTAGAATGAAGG
Our labelling divides records by PBM binding z-score into ranges: low: < 0.7; medium: ≥ 0.7 and < 4; high: ≥ 4

# Construct sequence, Assigned label
data = [
    ("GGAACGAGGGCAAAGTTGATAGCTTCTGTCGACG", "high"),
    ("AGTCAAAGTTCATCTAGGTAACGTAAGATATGCT", "high"),
    ("CCTACTGGGCCACAAAGGTCATTGATGCCGATAA", "high"),
    ("CCAGACAGGTGAAAGGCAACTCAGTCTGGTACGC", "medium"),
    ("GCATATAGGTAATACAAGGTGAACGTCCGATTGT", "medium"),
    ("AGAATGAGGTTATTAAGAACAGGGAATTGCGGTC", "medium"),
    ("CGTCCAAGGTCAAGGTCAGTGTAAGAGACTCGAA", "high"),
    ("CGTCCAAGGTCAGCAGGGCAGTGAAAGCGACGTG", "medium"),
    ("ACAGACATGTGATGAAGGTAACTCAGGCTATCAT", "low"),
    ("GCTCGGACGACAAGGTCAGAGCTTTGTCCGTAGA", "low"),
    ("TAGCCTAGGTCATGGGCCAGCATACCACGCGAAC", "medium"),
    ("TCTAACAGGCCAGAGGGTCACTCAAGAGGTACGG", "medium"),
    ("TAGCCTAGGTCAAATCGGGCCAGTATACGCTATA", "medium"),
    ("GCAGACAGGTGAAACGCAGGTAACTCACGGTGGC", "low"),
    ("CGAACTACGTCAAGGACAGTGAATCTCCGCACGC", "low"),
    ("TCATATAGGTAAAGGTGAAAGTGGAACGATATGA", "high"),
    ("ATCGAAAGGTAGAAGGTGAGTATACCCACCCGAA", "medium"),
    ("GCCTACGGGTCAAAGGTTATAGCATGAATAGAAT", "high"),
    ("CCTATTAGTTGACCATAAGGGTAACCGAAGCTCG", "low"),
    ("ATCGAAAGGTCGTGGTGAGTATAGAGAAAGGGAA", "high"),
    ("CCGACTGGGGAAAGGTTACCATAACGCACAGCCA", "medium"),
    ("ATCTCTAGGTAAGACTCAGTTTAGTGAAGAACGC", "low"),
    ("CATACAGTGTCAGCTAGGCCAGAGTAGGGACGGC", "low"),
    ("TCTTGTAGATCAACAGGAGGTTAACAAAGATCGA", "medium"),
    ("CTACCAAGGAGAACAAGGTCGTTGATTACTATTC", "low"),
    ("ACTATTAGTTGAGACGAGGACAACCGATAGGTTG", "low"),
]
